- Test system: SF-268
- protocol: NCI tumour cell line growth inhibition, 48 h
Activity calls are given as the source filed them. Rule as the data show it: active = GI50 up to about 1.1 µM and inactive = higher.
parameter_measured: GI50

Worked examples follow.
• c1cc2nnc1SCCCSc1ccc(nn1)SCCCSc1ccc(nn1)SCCCS2 = 92 µM (inactive)
• c1ccc(-c2cc(-c3cc(-c4ccccc4)no3)on2)cc1 = 66.1 µM (inactive)
• CCOC1CC2OC(=O)C1C=C2C(=O)OC (stereo unspecified) = 28.9 µM (inactive)
• N#Cc1nnn(C2CCCCC2)c1O = > 100 µM (inactive)
• O=C(O)c1cnc(-n2[nH]c3c(c2=O)CCCC3)[nH]c1=O = > 100 µM (inactive)

Next up:
input: Give GI50 for C=C1C(=O)O[C@H]2[C@H](OC(C)=O)[C@@H](C)CCC/C(C)=C/CC[C@@]3(C)O[C@@H]3C[C@@H]12
output: 5.62 µM (inactive)

###

Reported GI50 values follow for various compounds
- Tested on: OVCAR-8
- protocol: NCI tumour cell line growth inhibition, 48 h
Calls of active or inactive are those of the source. Rule as the data show it: active = GI50 up to about 1.1 µM and inactive = higher.

• C[C@@]1(CBr)C[C@@](C)(/C=C/Cl)[C@@H](Cl)C[C@H]1Cl = 13.9 µM (inactive)
• O=C1c2c(O)cccc2C(C2OC(CO)C(O)C(O)C2O)c2cc(CO)cc(O)c21 (stereo not given) = > 100 µM (inactive)
• CN1C(=O)c2ccccc2NC(=O)C12O[C@@H]2c1cccc(O)c1 (stereo not given in full) = > 100 µM (inactive)
• CCCCN(CCCC)CC(O)c1cc(-c2ccc(C(F)(F)F)cc2)nc(-c2ccc(C(F)(F)F)cc2)c1 (stereo not given) = > 100 µM (inactive)

Below: the item to evaluate.
input: Provide GI50 value for the following compound: CCN1C=C/C(=C\C=C\c2cc[n+](CC)c3ccccc23)c2ccccc21
output: 4.28 µM (inactive)

###

- System: CAKI-1
- protocol: NCI tumour cell line growth inhibition, 48 h
The source made the active and inactive calls. No stated cut-off is given here; in the data, active = GI50 up to about 1.1 µM and inactive = higher.
Attribute: GI50

* Cc1cc2c(=O)n(-c3ccc(F)cc3)c(C)nc2c(C(=O)O)c1C | > 100 µM (inactive)
* O=C(NCCCNCCCNC(=O)c1cc(-c2ccccc2)nc2ccccc12)c1cc(-c2ccccc2)nc2ccccc12 | 1.9 µM (inactive)
* CC(=O)O/N=C(Cl)/C(Cl)=N/OC(C)=O | > 100 µM (inactive)
* CC12CC3CC(C)(C1)CC(N=[N+]=[N-])(C3)C2 | > 100 µM (inactive)
* C=CCC1NCCC2=C1C(S(=O)(=O)c1ccc(C)cc1)c1ccccc12 (stereo not given) | 6.92 µM (inactive)

input: Output GI50 of CCOC(=O)C1(C(=O)OCC)C[C@H]2CON=C2[C@@H]1c1ccc(C(F)(F)F)cc1
output: 30.9 µM (inactive)

input: Give the value of GI50 reported for the following: CC1(c2cccs2)CC(c2cccs2)=C(C#N)C(=C(C#N)C#N)N1 (stereo not given)
output: 19.7 µM (inactive)

input: Answer with reported GI50 of O=C(c1cc2ccccc2o1)N(Cc1ccccc1)c1ccccc1
output: 19.5 µM (inactive)

input: Fill in GI50 for record COc1cc(OC)c2c(=O)cc(-c3ccc(OC)c(OC)c3OC)oc2c1
output: > 100 µM (inactive)

input: Entry CCOP(=O)(OCC)C(c1ccc(F)cc1)N(C(=O)NC(F)(F)F)c1cccc(C(F)(F)F)c1 (stereo not given) needs its GI50 filled in; supply it.
output: > 100 µM (inactive)

###

Catalogue of GI50 readings, one per entry.
- Test system: EKVX
- protocol: NCI tumour cell line growth inhibition, 48 h
Active and inactive are the calls of the source. Rule as the data show it: active = GI50 up to about 1.1 µM and inactive = higher.

Example molecules with recorded GI50:
- Cc1c(C#N)c(=N)oc2ccccc12: 49.8 µM (inactive)
- C[N+](C)(C)CC1CCCC(C[N+](C)(C)C)C1O (stereo unspecified): > 100 µM (inactive)
- c1ccc(-c2cc(-c3ccccc3)nc(-c3ccncc3)c2)cc1: > 100 µM (inactive)
- COc1cc2c(cc1O)C(Cc1ccc(OCc3ccccc3)c(OCc3ccccc3)c1)N(C(=O)NCCc1ccccc1)CC2 (stereo unspecified): > 100 µM (inactive)
- COC(=O)Nc1nc2cc(NC(=O)c3cccs3)ccc2[nH]1: 40.3 µM (inactive)
- NCP(=O)(O)OCC(=O)O: > 100 µM (inactive)

input: In one line, give reported GI50 of the entry CCCC(=O)c1ccc2c(ccc(=O)n2C)c1 .
output: 42.2 µM (inactive)

###

Listed here: items and their measured GI50.
- Test system: HCT-116
- protocol: NCI tumour cell line growth inhibition, 48 h
Active and inactive are the calls of the source. Cut-off read from the data, not from the text of the source: active = GI50 up to about 1.1 µM and inactive = higher.

The following molecules have reported results that may help.
• CC(C)(C)c1cc(CCCCCCCC2(CCCCCCCc3cc(C(C)(C)C)cc(C(C)(C)C)c3)OC(COCCOCCCCCC#N)C(COCCOCCCCCC#N)O2)cc(C(C)(C)C)c1 (stereo not given) = > 100 µM (inactive)
• CC(=O)CCCCCCCCCCCC[C@@H]1CC[C@H](C)[C@H](O)N1 = > 100 µM (inactive)
• O=C(O)CSc1cc(-c2ccccc2)nc2ccccc12 = 5.41 µM (inactive)
• CCCCCCCCOP(=O)(O)OP(=O)(O)OCC1OC(n2ccc(N)nc2=O)C(O)C1O (stereo not given) = > 100 µM (inactive)
• COC(=O)C1=CO[C@@H](OC2OC(CO)C(O)C(O)C2O)[C@H]2[C@@H](C)[C@@H](O)[C@@H](O)[C@@H]12 (stereo not given in full) = > 100 µM (inactive)

input: Return GI50 for the following molecule: O=C(c1ccc(F)cc1)c1cccc(C(=O)c2ccc(F)cc2)n1
output: 22.9 µM (inactive)

input: Give the reported value of GI50 for this record: COc1ccc(-c2cc(-c3ccc(Nc4ccnc5cc(Cl)ccc45)cc3)nc(N)c2C#N)c2ccccc12
output: > 100 µM (inactive)

input: Please list GI50 recorded for the molecule O=C1NNC2(C(=O)N1)c1ccccc1-c1ccccc12
output: > 10 µM (inactive)

input: Give the value of GI50 reported for the following: COC(=O)Nc1nc2cc(NC(=O)c3cccs3)ccc2[nH]1
output: 34.4 µM (inactive)

input: Please indicate GI50 recorded for NC(=O)N/N=C(\Cc1nc2ccc(C(=O)c3ccccc3)cc2nc1O)C(=O)Nc1ccc(Br)cc1
output: > 100 µM (inactive)

###

- Test system: SF-268
- protocol: NCI tumour cell line growth inhibition, 48 h
Activity calls are given as the source filed them. No stated cut-off is given here; in the data, active = GI50 up to about 1.1 µM and inactive = higher.
Catalogue of compounds with associated GI50

Reference set (3 entries):
* C#CC1(O)CCC2[C@@H]3CCc4cc(Oc5nc(F)nc(-c6c7ccccc7c(SCC)n6CCC)n5)ccc4C3CC[C@@]21C (some centres undefined) | 57.5 µM (inactive)
* CN1CCCNCCN(CCc2ccccn2)CCCN(C)CC1 | > 100 µM (inactive)
* CC1OC(OC2C(O)COC(OC3C(C)OC(OC4C(OC(=O)[C@]56CCC(C)(C)C[C@@H]5C5=CCC7[C@@]8(C)C[C@H](O)[C@H](OC9OC(CO)C(O)C(O)C9O)[C@@](C)(CO)[C@@H]8CC[C@@]7(C)[C@]5(C)CC6)OCC(O)C4O)C(O)C3OC3OCC(O)(CO)C3O)C2O)C(O)C(O)C1O (some centres undefined) | 10.2 µM (inactive)

// next entry
input: Determine from records and report GI50 for CCOC(=O)c1c(NC(=S)NCc2ccccc2)sc2c1CCN(C)C2
output: 64 µM (inactive)

###

- Tested on: HOP-62
- protocol: NCI tumour cell line growth inhibition, 48 h
Counter-ions that a name gives are not always drawn. The source made the active and inactive calls. Rule as the data show it: active = GI50 up to about 1.1 µM and inactive = higher.
Thanks in advance; please answer with one of these: active, inactive

• O=C1NNC2(C(=O)N1)c1ccccc1-c1ccccc12 = inactive
• CCN(CCCl)CCNc1c2ccccc2nc2ccc(OC)cc12 = active
• CN(C)CCN(C)P12(Oc3ccccc3O1)Oc1c(Cl)c(Cl)c(Cl)c(Cl)c1O2 = inactive

input: Field: outcome | Entry: CC12CC3CC(C)(C1)CC(N=[N+]=[N-])(C3)C2
output: inactive

input: Any idea what this test logged for COc1cc(/C=C(\OC(C)=O)c2ccc3c(c2)OCO3)cc(OC)c1OC ?
output: inactive

input: What classification did CN(C)S(=O)(=O)c1nc(Cl)c2nc[nH]c2n1 end up with in this test?
output: inactive

input: Called result for Oc1ccc2ccccc2c1/N=N/c1ccc(/N=N/c2ccccc2)cc1
output: inactive

input: Could you please tell me the result logged for CC1(C)Oc2ccc(Cl)cc2C12CC2 in this assay?
output: inactive

input: I'd appreciate the recorded outcome for COc1cc2c(cc1OC)-c1cc3cc(OC)c(OC)cc3c(C)[n+]1CC2.O=C([O-])CS(=O)(=O)O from this test.
output: inactive

input: Any idea what this test logged for CS(=O)(=O)c1nc(-c2cc3c(c(S(C)(=O)=O)n2)CCC3)cc2c1CCCC2 ?
output: inactive

input: Called result for COc1ccc(C2C(=O)C(Cl)N2Nc2nc(C)cc(O)n2)cc1OC (stereo not given)
output: inactive

input: Kindly provide the recorded test outcome for the following molecule: CC(=O)N(C)c1ccc(Nc2cc(C)nc3ccc4nc[nH]c4c23)cc1 [ACODAZOLE HYDROCHLORIDE]
output: inactive

input: Each molecule tested received a call. Report the one for O=C1CCC(Cl)=CC2CCCN12 (stereo not given) .
output: inactive
